Test: In vitro inhibitory concentration against Prostaglandin G/H synthase 1 (COX-1)

| Structure notation | Log IC50 |
| --- | --- |
| NS(=O)(=O)c1ccc(-n2nc(C(F)(F)F)c3c2-c2ccc(F)c(F)c2CS3)cc1 | -5.57 |
| NS(=O)(=O)c1ccc(-n2nc(C(F)(F)F)c3c2-c2cccc(F)c2CS3)cc1 | -5.2 |
| COc1ccc2c(c1F)CSc1c(C(F)(F)F)nn(-c3ccc(S(N)(=O)=O)cc3)c1-2 | -5.56 |
| Cc1ccc2c(c1)CSc1c(C(F)(F)F)nn(-c3ccc(S(N)(=O)=O)cc3)c1-2 | -6.1 |
| NS(=O)(=O)c1ccc(-n2nc(C(F)(F)F)c3c2-c2ccccc2OC3)cc1 | -5.15 |
| Cc1ccc2c(c1F)CSc1c(C(F)(F)F)nn(-c3ccc(S(N)(=O)=O)cc3)c1-2 | -4.95 |
| NS(=O)(=O)c1ccc(-n2nc(C(F)(F)F)c3c2-c2ccccc2SC3)cc1 | -5.01 |
| NS(=O)(=O)c1ccc(-n2nc(C(F)(F)F)c3c2-c2ccccc2CS3)cc1 | -6.4 |
| N#Cc1nn(-c2ccc(S(N)(=O)=O)cc2)c2c1SCc1cc(F)ccc1-2 | -6.12 |
| COc1ccc2c(c1)CSc1c(C(F)(F)F)nn(-c3ccc(S(N)(=O)=O)cc3)c1-2 | -6.52 |
| NS(=O)(=O)c1ccc(-n2nc(C(F)(F)F)c3c2-c2ccc(F)cc2CS3)cc1 | -6.57 |

Data origin: ChEMBL document CHEMBL1143536
